Field: inhibition at 10 µM. Provide a value for each of the molecules that follow.
System: Human red blood corpuscles
Experiment: Measurement of haemolysis induced by AAPH
Type: cell-based
Settings: Erythrocyte, 0.5 h, 10^-5 M, 30 minutes at 37° C.
Numbers only, in %.

Study these solved cases before continuing.
O=C(Nc1ccccc1)C1=COc2cc(O)ccc2O1 [Example 10] :: 100
O=C(C1=COc2ccc(O)cc2O1)N1CCN(C(c2ccc(F)cc2)c2ccc(F)cc2)CC1 [Example 2] :: 100
O=C(Nc1ccccc1)C1=COc2ccc(O)cc2O1 [Example 13] :: 100
O=C(Nc1ccccc1)C1COc2cc(O)ccc2O1 (centres unmarked) [Example 11] :: 100
O=C(C1COc2cc(O)ccc2O1)N1CCN(C(c2ccc(F)cc2)c2ccc(F)cc2)CC1 (centres unmarked) [Example 3] :: 88
O=C(Nc1ccccc1)C1COc2ccc(O)cc2O1 (centres unmarked) [Example 12] :: 100
COc1ccc(CN2CCN(C(=O)C3COc4ccc(O)cc4O3)CC2)c(OC)c1OC (centres unmarked) [Example 17] :: 100

Continue with the molecule presented below.
Exercise: Tell me measured inhibition at 10 µM for O=C(C1=COc2cc(O)ccc2O1)N1CCN(C(c2ccc(F)cc2)c2ccc(F)cc2)CC1 [Example 1] please.
Key: 62
